Field: inhibition at 10 µM. Provide a value for each of the compounds that follow.
assayedSystem: human B1R receptor (hB1R) (Homo sapiens)
Construct: expressed in transfected cells; host or cells: CHO K1 cells
Sequence (P46663 1-353): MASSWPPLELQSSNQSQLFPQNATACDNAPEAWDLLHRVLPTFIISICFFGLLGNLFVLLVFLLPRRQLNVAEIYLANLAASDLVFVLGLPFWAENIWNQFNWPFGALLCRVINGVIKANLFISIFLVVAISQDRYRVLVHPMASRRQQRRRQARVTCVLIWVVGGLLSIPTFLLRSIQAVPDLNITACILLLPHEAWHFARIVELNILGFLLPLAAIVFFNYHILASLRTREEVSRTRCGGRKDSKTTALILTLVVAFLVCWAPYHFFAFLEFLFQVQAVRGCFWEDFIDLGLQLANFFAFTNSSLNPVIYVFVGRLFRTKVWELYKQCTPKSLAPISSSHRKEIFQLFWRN
assayMethodText: Functional investigation on the bradykinin 1 receptor (B1R), FLIPR Ca2+ assay, hB1R cells
Format: cell-based
recordedConditions: CHO-K1, 10 μM test substance; CHO K1 cells with human B1R; agonist Lys-Des-Arg9 bradykinin; % of maximum achievable inhibition; read-out: B1R antagonism, human [10 μM] % inhibition
Text: The agonistic or antagonistic action of substances can be quantified on the bradykinin 1 receptor (B1R) of the human and rat species with ectopically expressing cell lines (CHO K1 cells) and with the aid of a Ca^2+-sensitive dye (Fluo-4) using a fluorescent imaging plate reader (FLIPR). […] The agonistic or antagonistic action of substances can be determined on the bradykinin 1 receptor (B1R) of the human and rat species with the following assay. […]
API: value field is a number in %; no unit string.

Return reported inhibition at 10 µM; argument: COc1cc(C)c(S(=O)(=O)Nc2cccc3ccn(CC(=O)N4CCC5(CCN(c6ccncc6)C5)C4)c23)c(C)c1 (centres unmarked) 100

Moving on to COc1cc(C)c(S(=O)(=O)Nc2cccc3ccn(CCC(=O)N4CCN(CC5CCN(C)CC5)CC4)c23)c(C)c1 100

Moving on to COc1cc(C)c(S(=O)(=O)Nc2cccc3ccn(CC(=O)N4CCC(OCCN5CCCC5)(c5cccnc5)CC4)c23)c(C)c1 83

Moving on to Cc1cccc2c1C(=O)N(c1ccc3ccn(CC(=O)N4CCC5(CC4)CCN(c4ccncc4)CC5)c3c1)C2 98

Moving on to COc1cc(C)c(S(=O)(=O)Nc2cccc3ccn(CC(=O)N4CCC5(CCN(c6ccncc6)CC5)C4)c23)c(C)c1 99

Moving on to COc1cc(C)c(S(=O)(=O)Nc2cccc3ccn(CC(=O)N4CCC(N5CCc6cc(CN7CCCCC7)ccc6C5)C4)c23)c(C)c1 (centres unmarked) 100

Moving on to COc1cc(C)c(S(=O)(=O)Nc2cccc3ccn(CC(=O)N(C)CCCN4CCN(c5ccncc5)CC4)c23)c(C)c1 100

Moving on to O=C(Cn1ccc2ccc(N3Cc4cccc(Cl)c4C3=O)cc21)N1CCC2(CC1)CC(c1ccncc1)=NO2 81

Moving on to Cc1cc(S(=O)(=O)Nc2ccc3ccn(CC(=O)N4CCN(CC5CCN(C)CC5)CC4)c3c2)c(C)cc1Cl 26

Moving on to COc1cc(C)c(S(=O)(=O)Nc2cccc3ccn(CC(=O)N4CCC5(CCC(N6CCC6)CC5)CC4)c23)c(C)c1 99

Moving on to O=C(Cn1ccc2ccc(N3Cc4cccc(Cl)c4C3=O)cc21)N1CCC2(CC1)CCN(c1ccncc1)CC2 98

Moving on to O=C(Cn1ccc2ccc(N3Cc4cccc(Cl)c4C3=O)cc21)N1CCC2(CCN(c3ccncc3)CC2)C1 98

Moving on to COc1cc(C)c(S(=O)(=O)Nc2ccc3ccn(CC(=O)N(C)CCCN4CCN(c5ccncc5)CC4)c3c2)c(C)c1 92

Moving on to O=C(Cn1ccc2ccc(N3Cc4cccc(Cl)c4C3=O)cc21)N1CCC2(CCC(Oc3ccncc3)CC2)CC1 97

Moving on to O=C(Cn1ccc2ccc(N3Cc4cccc(Cl)c4C3=O)cc21)N1CCC2(CCC(N3CCC3)CC2)CC1 99

Moving on to Cc1cc(S(=O)(=O)Nc2cccc3ccn(CCC(=O)N4CCN(CC5CCN(C)CC5)CC4)c23)c(C)cc1Cl 94

Moving on to O=C(Cn1ccc2ccc(N3Cc4cccc(Cl)c4C3=O)cc21)N1CCC2(CCC(N3CC(F)(F)C3)CC2)CC1 43
